Biological target: P2Y purinoceptor 1 (Meleagris gallopavo)
Assay: Antagonist activity at P2Y1 receptor measured as capacity to inhibit 50% of phospholipase C stimulation elicited by 10 nM 2-MeSATP
I'd be grateful if you could share measured pIC50 for these entries.
Please keep in mind that pIC50 is minus log10 of the molar concentration; only the number is needed.

Request body: readout pIC50, system P2Y purinoceptor 1 (Meleagris gallopavo), query Nc1ncnc2c1ncn2[C@@H]1O[C@H](COP(=O)(O)O)[C@H]2O[P@](=O)(O)O[C@H]21 . Return the value.
4.90

State its pIC50 on P2Y purinoceptor 1 (Meleagris gallopavo): CSc1nc(N)c2ncn([C@H]3C[C@H](OP(=O)(O)O)[C@@H](COP(=O)(O)O)O3)c2n1
5.68

Find pIC50 (P2Y purinoceptor 1 (Meleagris gallopavo)) for the entry Nc1ncnc2c1ncn2[C@@H]1O[C@H](COP(=O)(O)O)[C@@H](O)[C@H]1OP(=O)(O)O
5.07

Query for P2Y purinoceptor 1 (Meleagris gallopavo): what pIC50 does the record show for CN(C)c1ncnc2c1ncn2[C@H]1C[C@H](OP(=O)(O)O)[C@@H](COP(=O)(O)O)O1 ?
4.33

* * *

Target: UniProtKB P49652
Assay: Agonist activity at P2Y1 receptor measured as capacity to stimulate phospholipase C in turkey erythrocyte membranes
Type: functional, cell membranes
PARAMETER: Max increase (%)
# number only, unit % dropped from output

Please report the recorded Max increase for Nc1ncnc2c1ncn2[C@H]1C[C@H](OP(O)(O)=S)[C@@H](COP(O)(O)=S)O1 .
9

Look up Max increase for this compound: CO[C@@H]1[C@H](OP(=O)(O)O)[C@@H](COP(=O)(O)O)O[C@H]1n1cnc2c(N)ncnc21
35

Consider the compound shown here: Nc1ncnc2c1ncn2[C@@H]1O[C@H](COP(=O)(O)O)[C@@H](OP(=O)(O)O)[C@H]1O What is its recorded Max increase?
21

GET /values?readout=Max increase&item= Nc1ncnc2c1ncn2C1O[C@H](COP(=O)(O)OP(=O)(O)OC2O[C@H](CO)[C@@H](O)[C@H]2O)[C@@H](O)[C@H]1OP(=O)(O)O (some centres not stated)
50

So what does the record say about Max increase for CC(C)(COP(=O)(O)OP(=O)(O)OC[C@H]1O[C@@H](n2cnc3c(N)ncnc32)[C@H](OP(=O)(O)O)[C@@H]1O)C(O)C(=O)NCCC(=O)NCCS (some centres not stated) ?
43

Look up Max increase: Nc1nc(Cl)nc2c1ncn2[C@H]1C[C@H](OP(=O)(O)O)[C@@H](COP(=O)(O)O)O1
19

Fill in: Max increase of Nc1ncnc2c1ncn2[C@@H]1O[C@H](COP(=O)(O)O)[C@H]2OP(=O)(O)O[C@H]21 is ___
43

* * *

Provide the reported pEC50 of each item.
Biological target: P2Y purinoceptor 1 (Meleagris gallopavo, UniProt P49652)
Sequence (P49652 whole entry): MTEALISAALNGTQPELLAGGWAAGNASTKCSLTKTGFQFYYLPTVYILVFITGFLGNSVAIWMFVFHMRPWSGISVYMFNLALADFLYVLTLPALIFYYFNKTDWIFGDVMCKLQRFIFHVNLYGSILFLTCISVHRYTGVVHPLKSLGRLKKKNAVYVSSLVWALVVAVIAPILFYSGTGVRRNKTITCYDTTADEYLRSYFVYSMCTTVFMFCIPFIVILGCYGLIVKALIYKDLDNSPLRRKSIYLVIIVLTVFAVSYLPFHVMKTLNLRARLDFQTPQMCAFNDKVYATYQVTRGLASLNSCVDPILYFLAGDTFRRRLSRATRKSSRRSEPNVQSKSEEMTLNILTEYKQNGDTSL
Test: Agonist activity at P2Y1 receptor measured as capacity to stimulate 50% phospholipase C in turkey erythrocyte membranes
Schema: pEC50 number; meaning minus log10 of the concentration expressed in molar units.

Given CSc1nc(N)c2ncn([C@H]3C[C@H](OP(=O)(O)O)[C@@H](COP(=O)(O)O)O3)c2n1 , state its recorded pEC50.
6.26

Entry Nc1ncnc2c1ncn2[C@@H]1O[C@H](COP(=O)(O)O)[C@@H](O)[C@H]1OP(=O)(O)O : reported pEC50 = ?
5.86

Need pEC50 of Nc1nc(Cl)nc2c1ncn2[C@H]1C[C@H](OP(=O)(O)O)[C@@H](COP(=O)(O)O)O1 , thanks.
6.19

Dear colleague, I am looking for the recorded pEC50 of the following molecule: CO[C@@H]1[C@H](OP(=O)(O)O)[C@@H](COP(=O)(O)O)O[C@H]1n1cnc2c(N)ncnc21
4.89

Returns the measured pEC50 for the input molecule. Input: Nc1ncnc2c1ncn2C1OC(COP(=O)(O)O)CC1OP(=O)(O)O (stereo not given)
5.08

Need pEC50, item Nc1ncnc2c1ncn2[C@@H]1O[C@H](COP(=O)(O)O)[C@@H](OP(=O)(O)O)[C@H]1O
5.89

For the molecule shown here, Nc1ncnc2c1ncn2[C@H]1C[C@H](OP(=O)(O)O)[C@@H](COP(=O)(O)O)O1 , give the reported pEC50.
5.20

Please report the recorded pEC50 for Nc1ncnc2c1ncn2[C@@H]1O[C@H](COP(=O)(O)O)[C@H]2O[P@](=O)(O)O[C@H]21 .
4.39

* * *

Biological target: P2Y purinoceptor 1 (Meleagris gallopavo) (UniProt P49652)
Sequence (P49652 whole entry): as above
Assay: Antagonist activity at P2Y1 receptor measured as capacity to inhibit phospholipase C stimulation elicited by 10 nM 2-MeSATP
Assay type: functional
Would you mind labelling by Max inhibition? At or over 80% is MET, under is NOT MET.

Check the entry CN(C)c1ncnc2c1ncn2[C@H]1C[C@H](OP(=O)(O)O)[C@@H](COP(=O)(O)O)O1 : does Max inhibition equal or exceed 80%?
NOT MET

Please indicate if the recorded Max inhibition for CO[C@@H]1[C@H](OP(=O)(O)O)[C@@H](COP(=O)(O)O)O[C@H]1n1cnc2c(N)ncnc21 meets or exceeds 80%.
NOT MET

Entry CCNc1ncnc2c1ncn2[C@H]1C[C@H](OP(=O)(O)O)[C@@H](COP(=O)(O)O)O1 : is its Max inhibition no less than 80%?
MET

Could you verify whether the entry C[n+]1cnc2c(ncn2[C@H]2C[C@H](OP(=O)(O)O)[C@@H](COP(=O)(O)O)O2)c1N shows Max inhibition of no less than 80%?
MET

Does the reported Max inhibition for Nc1ncnc2c1ncn2C1O[C@H](COP(=O)(O)OP(=O)(O)OC2O[C@H](CO)[C@@H](O)[C@H]2O)[C@@H](O)[C@H]1OP(=O)(O)O (stereo partly drawn) fall at or above the 80% mark?
NOT MET

* * *

Target: P2Y purinoceptor 1 (Meleagris gallopavo)
Assay: Antagonist activity at P2Y1 receptor measured as capacity to inhibit 50% of phospholipase C stimulation elicited by 10 nM 2-MeSATP
Lab note: anything with IC50 below 4 µM is marked Criterion met; values at 4 µM or higher are marked Criterion not met.

Please let me know if Nc1ncnc2c1ncn2C1OC(COP(=O)(O)O)CC1OP(=O)(O)O (stereo not drawn) shows IC50 below 4 µM.
Criterion not met

Hello, is IC50 of the following compound strictly smaller than 4 µM? CCNc1ncnc2c1ncn2[C@H]1C[C@H](OP(=O)(O)O)[C@@H](COP(=O)(O)O)O1
Criterion met

Threshold test, IC50 < 4 µM: Nc1ncnc2c1nc(Br)n2[C@H]1C[C@H](OP(=O)(O)O)[C@@H](COP(=O)(O)O)O1
Criterion not met

Please indicate whether the reported IC50 of Nc1ncnc2c1ncn2C1O[C@H](COP(=O)(O)OP(=O)(O)OC2O[C@H](CO)[C@@H](O)[C@H]2O)[C@@H](O)[C@H]1OP(=O)(O)O (stereo partly drawn) is strictly below 4 µM.
Criterion not met

Say whether its IC50 is strictly beneath 4 µM. Entry: CSc1ncnc2c1ncn2[C@H]1C[C@H](OP(=O)(O)O)[C@@H](COP(=O)(O)O)O1
Criterion not met

Input Nc1ncnc2c1ncn2[C@@H]1O[C@H](COP(=O)(O)O)[C@@H](OP(=O)(O)O)[C@H]1O ; condition: IC50 strictly below 4 µM. Does it hold?
Criterion not met

Could you please tell me whether IC50 recorded for Nc1nc(Cl)nc2c1ncn2[C@H]1C[C@H](OP(=O)(O)O)[C@@H](COP(=O)(O)O)O1 is less than 4 µM?
Criterion met

Regarding Nc1ncnc2c1ncn2[C@H]1C[C@H](OP(=O)(O)O)[C@@H](COP(=O)(O)O)O1 , kindly confirm whether its IC50 is beneath 4 µM.
Criterion not met

* * *

Target: P2Y purinoceptor 1 (Meleagris gallopavo) (UniProt P49652)
Experiment: Agonist activity at P2Y1 receptor measured as capacity to stimulate phospholipase C in turkey erythrocyte membranes
Type: functional, cell membranes
PARAMETER: Max increase (%)
# unit: % | format: bare number

Please look up its Max increase: Nc1ncnc2c1ncn2[C@@H]1O[C@H](COP(=O)(O)O)[C@@H](O)[C@H]1OP(=O)(O)O
25

Dear colleague, I am looking for the recorded Max increase of the following molecule: CNc1ncnc2c1ncn2C1OC(COP(=O)(O)O)CC1OP(=O)(O)O (stereo not given)
13

Which measured Max increase value corresponds to CSc1nc(N)c2ncn([C@H]3C[C@H](OP(=O)(O)O)[C@@H](COP(=O)(O)O)O3)c2n1 ?
22

// lookup Max increase for Nc1ncnc2c1ncn2[C@H]1C[C@H](OP(=O)(O)O)[C@@H](COP(=O)(O)O)O1
12

Report Max increase for Nc1ncnc2c1ncn2C1OC(COP(=O)(O)O)CC1OP(=O)(O)O (stereo not given) please.
16

* * *

Biological target: P2Y purinoceptor 1 (Meleagris gallopavo)
Experiment: Antagonist activity at P2Y1 receptor measured as capacity to inhibit phospholipase C stimulation elicited by 10 nM 2-MeSATP
Format: functional
PARAMETER: Max inhibition (%)
Numbers only here, please. The scale is %.

// query Max inhibition value for entry Nc1ncnc2c1ncn2[C@H]1C[C@H](OP(=O)(O)O)[C@@H](COP(=O)(O)O)O1
87

Would you kindly share the measured Max inhibition for CC(C)(COP(=O)(O)OP(=O)(O)OC[C@H]1O[C@@H](n2cnc3c(N)ncnc32)[C@H](OP(=O)(O)O)[C@@H]1O)C(O)C(=O)NCCC(=O)NCCS (some centres undefined) ?
72

Dear colleague, I am looking for the recorded Max inhibition of the following compound: Nc1ncnc2c1ncn2[C@H]1C[C@H](OP(O)(O)=S)[C@@H](COP(O)(O)=S)O1
91

Item Nc1ncnc2c1ncn2[C@@H]1O[C@H](COP(=O)(O)O)[C@H]2OP(=O)(O)O[C@H]21 has what recorded Max inhibition?
73

What does the data say about its Max inhibition? Entry: CSc1nc(N)c2ncn([C@H]3C[C@H](OP(=O)(O)O)[C@@H](COP(=O)(O)O)O3)c2n1
77

Report Max inhibition for CNc1ncnc2c1ncn2C1OC(COP(=O)(O)O)CC1OP(=O)(O)O (centres undefined) please.
90

What value of Max inhibition has been recorded for this entry: Nc1ncnc2c1nc(Br)n2[C@H]1C[C@H](OP(=O)(O)O)[C@@H](COP(=O)(O)O)O1
100

Entry Nc1ncnc2c1ncn2[C@@H]1O[C@H](COP(=O)(O)O)[C@@H](O)[C@H]1OP(=O)(O)O : reported Max inhibition = ?
75

What measured Max inhibition goes with Nc1ncnc2c1ncn2[C@@H]1O[C@H](COP(=O)(O)O)[C@@H](OP(=O)(O)O)[C@H]1O ?
77
